Target: human LPAAT-β (Homo sapiens)
Construct: the full-length human LPAAT-β cDNA was amplified by PCR; poly-histidine tag (N); the membrane fraction was used as the enzyme
Experiment: LPAAT-β cell-free assay
Details: Sf9 cell membrane overexpressing recombinant LPAAT-β
Quantity Measured: pIC50
Just so you know, pIC50 here is -log10 of the concentration in molar units; reply with that number alone.

1. COc1ccc(Cl)cc1-c1cc(Nc2ccc(C#N)cc2)nc(N)n1	7.48
2. CCOc1ccc(Br)cc1-c1cc(Nc2ccc(C(C)O)cc2)nc(N)n1 (stereo not shown)	6.96
3. COc1ccc(Br)cc1-c1cc(Nc2ccc([N+](=O)[O-])cc2)nc(N)n1	7.85
4. Cc1ccc(Cl)cc1-c1cc(Nc2ccc(CCCO)cc2)nc(N)n1	6.07
5. Cc1ccc(C)c(-c2cc(Nc3ccc(Cl)cc3)nc(N)n2)c1	6.80

Exercise: Please look at this compound and report its pIC50: CCOc1ccc(Cl)cc1-c1cc(Nc2ccc(COC(=O)CN)cc2)nc(N)n1
Key: 5.82

Exercise: Please look at this compound and report its pIC50: Cc1ccc(Cl)cc1-c1cc(Nc2ccc(C(F)(F)F)nc2)nc(N)n1
Key: 6.30

Exercise: Please look at this compound and report its pIC50: Nc1nc(Nc2ccc([N+](=O)[O-])cc2)cc(-c2cc(Cl)ccc2Cl)n1
Key: 8.05

Exercise: Please look at this compound and report its pIC50: COc1ccccc1COc1ccc(Br)cc1-c1cc(Nc2ccc(Cl)cc2)nc(N)n1
Key: 8.40

Exercise: Please look at this compound and report its pIC50: CCOc1ccc(Cl)cc1-c1cc(Nc2ccc(C(F)(F)F)cc2)nc(N)n1
Key: 7.15

###

Target: human LPAAT-β (Homo sapiens, UniProt O15120)
Construct: the full-length human LPAAT-β cDNA was amplified by PCR; poly-histidine tag (N); the membrane fraction was used as the enzyme
Sequence (O15120 24-278): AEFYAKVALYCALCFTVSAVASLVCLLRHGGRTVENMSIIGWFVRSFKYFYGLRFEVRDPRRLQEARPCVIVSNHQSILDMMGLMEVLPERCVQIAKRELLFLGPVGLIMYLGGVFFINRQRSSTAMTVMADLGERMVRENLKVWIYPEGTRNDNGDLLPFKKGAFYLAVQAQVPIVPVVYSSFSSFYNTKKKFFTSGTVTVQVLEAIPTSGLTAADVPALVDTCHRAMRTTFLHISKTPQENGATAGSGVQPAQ
Test: LPAAT-β cell-free assay
Details: Sf9 cell membrane overexpressing recombinant LPAAT-β
// map IC50 to label using I (below 30 nM), II (30 nM to below 200 nM), III (200 nM or more)

Consider the worked cases shown below.
1) COc1ccc(Cl)cc1-c1cc(Nc2ccc(O)cc2)nc(N)n1	III
2) COC(=O)c1ccc(Nc2cc(-c3cc(Cl)ccc3Cl)nc(N)n2)cc1	III
3) Nc1nc(Nc2ccc(Cl)cc2)cc(-c2ccccc2Oc2ccccc2)n1	III
4) CCOc1ccc(Br)cc1-c1cc(Nc2ccc(C(F)(F)F)cc2)ncn1	II

Exercise: In plain terms, what class is CCOc1ccc(Br)cc1-c1cc(Nc2ccc([N+](=O)[O-])cc2)nc(N)n1 ?
Key: I

Exercise: In plain terms, what class is CCOc1ccc(Br)cc1-c1cc(Nc2ccc(C)c(C)c2)nc(N)n1 ?
Key: II

Exercise: In plain terms, what class is CCOc1ccc(Cl)cc1-c1cc(Nc2ccc(C)cc2)nc(N)n1 ?
Key: II

Exercise: In plain terms, what class is COc1ccc(Br)cc1-c1cc(Nc2ccc(C#N)cc2)nc(N)n1 ?
Key: II

Exercise: In plain terms, what class is Nc1nc(Nc2ccc(Cl)cc2)cc(-c2cc(Br)ccc2OCCc2ccccc2)n1 ?
Key: I

Exercise: In plain terms, what class is Cc1nc(Nc2ccc(Cl)cc2)cc(-c2cc(Cl)ccc2C)n1 ?
Key: I

Exercise: In plain terms, what class is CC(=NO)c1ccc(Nc2cc(-c3cc(Cl)cc(Cl)c3Cl)nc(N)n2)cc1 ?
Key: III

Exercise: In plain terms, what class is Cc1ccc(Cl)cc1-c1cc(Nc2ccc3cn[nH]c3c2)nc(N)n1 ?
Key: II

###

Target: human LPAAT-β (Homo sapiens)
Construct: the full-length human LPAAT-β cDNA was amplified by PCR; poly-histidine tag (N); the membrane fraction was used as the enzyme
Assay: LPAAT-β cell-free assay
Details: Sf9 cell membrane overexpressing recombinant LPAAT-β
compounds and their reported IC50
Hi! Could you send only the number? It should be in nM, unit omitted.

Exercise: Please look at this compound and report its IC50: COc1ccc(COc2ccc(Br)cc2-c2cc(Nc3ccc(Cl)cc3)nc(N)n2)cc1
Key: 4

Exercise: Please look at this compound and report its IC50: Cc1ccc(Br)cc1-c1cc(Nc2ccc(Cl)cc2)nc(N)n1
Key: 31

Exercise: Please look at this compound and report its IC50: COc1ccc(Cl)cc1-c1cc(Nc2ccc3ncsc3c2)nc(N)n1
Key: 270

Exercise: Please look at this compound and report its IC50: CCOc1ccc(Br)cc1-c1cc(Nc2ccc(C(=O)C(F)(F)F)cc2)nc(N)n1
Key: 12

Exercise: Please look at this compound and report its IC50: Nc1nc(Nc2ccc(Cl)cc2)cc(-c2ccccc2)n1
Key: 1100

Exercise: Please look at this compound and report its IC50: COc1ccc(Nc2cc(-c3cc(Cl)ccc3OC)nc(N)n2)cc1
Key: 410

###

Target: human LPAAT-β (Homo sapiens)
Construct: the full-length human LPAAT-β cDNA was amplified by PCR; poly-histidine tag (N); the membrane fraction was used as the enzyme
Test: LPAAT-β cell-free assay
Details: Sf9 cell membrane overexpressing recombinant LPAAT-β
molecules and their reported pIC50
Just so you know, pIC50 here is -log10 of the concentration in molar units; reply with that number alone.

Field: example entries. Status: answers known.
1) CCOc1ccc(Br)cc1-c1cc(Nc2ccc(Cl)cc2)ncn1	7.52
2) CCOc1ccc(Br)cc1-c1cc(Nc2ccc(C(F)(F)F)nc2)nc(N)n1	6.72
3) CCOc1ccc(Br)cc1-c1cc(Nc2cccc(C(N)=O)c2)nc(N)n1	6.02

Exercise: Please look at this molecule and report its pIC50: N#Cc1ccc(Nc2cc(-c3cc(Cl)ccc3Cl)nc(N)n2)cc1
Key: 7.54
